# target or test system: UniProtKB P49238
# Sequence (P49238 whole entry): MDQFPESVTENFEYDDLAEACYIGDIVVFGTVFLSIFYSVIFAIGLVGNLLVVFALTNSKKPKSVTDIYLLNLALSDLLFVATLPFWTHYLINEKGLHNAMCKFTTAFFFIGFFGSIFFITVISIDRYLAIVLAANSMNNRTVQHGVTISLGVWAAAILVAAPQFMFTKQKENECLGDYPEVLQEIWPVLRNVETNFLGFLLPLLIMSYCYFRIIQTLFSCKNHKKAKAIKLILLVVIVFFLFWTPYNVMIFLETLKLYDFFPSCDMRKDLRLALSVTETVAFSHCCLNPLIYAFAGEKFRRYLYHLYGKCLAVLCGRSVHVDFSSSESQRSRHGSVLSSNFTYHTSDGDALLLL
# measurement notes: Suchi5 assay (HEK/NatClytin/CNG/Suchi5 transiently transfected hCX3CR1, Fluo-8 Ca2+ readout)
# Type: cell-based
# Parameters: expressed in transfected cells; stably expresses a Ca2+ sensitive photo-protein
# assay setup: Suchi5 assay, HEK/NatClytin/CNG/Suchi5 transfected with hCX3CR1; read-out: hCX3CR1 agonism EC50
measured property: EC50 (µM)

compound | measured
CN(C)CC1(CNC(=O)c2cc3c(s2)CCCCCC3)CC(F)(F)C1 | 9.6
O=C(NCC1(CN2CCCCC2)CCCC1)c1cc2c(s1)CCCCCC2 | 5.5
CC(C)OC1CCCN(CC2(CNC(=O)c3cc4c(s3)CCCCCC4)CCC2)C1 (stereo not shown) | 16.1
CN(C)CC1(CNC(=O)c2cc3c(s2)CCCCCC3)CCCC1 | 5.4
COC1CCN(CC(C)(C)CNC(=O)c2cc3c(s2)CCCCCC3)CC1 | 16.4

[a] O=C(NCC1(CN2CCC(O)C2)CCCC1)c1cc2c(s1)CCCCCC2 (single isomer, unassigned) [Example 63]
[b] CC(C)(CNC(=O)c1cc2c(s1)CCCCCC2)CN1CCCC1
IN: Returns: the argument ( a or b ) having the larger EC50. Field: selected label. Fill in the label of the entry you choose.
OUT: b
(b: 13.9 µM, a: 9.6 µM)

[I] CC1(O)CCCN(CC2(CNC(=O)c3cc4c(s3)CCCCCC4)CCC2)C1 (stereo not shown)
[II] CC(C)OC1CCN(CC2(CNC(=O)c3cc4c(s3)CCCCCC4)CCC2)CC1
[III] CC(C)(CNC(=O)c1cc2c(s1)CCCCCC2)CN1CCCC(O)C1 (stereo not shown)
IN: // ranking: key=EC50, reverse=True Respond with the label ranking, as requested.
OUT: II, III, I
(II: 18.4 µM, III: 11.8 µM, I: 1 µM)

[1] O=C(NCC1(CN2CCCC2)CC(O)C1)c1cc2c(s1)CCCCCC2 (stereo not shown)
[2] O=C(NCC1(CN2CCC(O)C2)CCCC1)c1cc2c(s1)CCCCCC2 (single isomer, unassigned) [Example 64]
IN: Problem: Given the entries 1 and 2 , determine which has the lower reported EC50. Field: selected label. Fill in the label of the entry you choose.
OUT: 1
(1: 5.8 µM, 2: 8.7 µM)

[1] CN(C)CC1(CNC(=O)c2cc3c(s2)CCCCCC3)CCC1
[2] CC(C)(CNC(=O)c1cc2c(s1)CCCCCC2)CN1CCC(C)(O)CC1
IN: Returns: the argument ( 1 or 2 ) having the larger EC50. Field: selected label. Fill in the label of the entry you choose.
OUT: 2
